// values below are reported melting point

A selection of reference data follows.
Request: // query melting point value for entry Nc1cc(N)cc(C(F)(F)F)c1
Response: 88 to 89 °C

Request: // query melting point value for entry CNc1ccccc1C(N)=O
Response: 161 to 163 °C

Request: Name the reported melting point value associated with the compound Clc1ccc(-n2cccc2)cc1
Response: 88 to 91 °C

Request: Fill blank: measured melting point of the compound CCOC(=O)c1cc(-c2cccs2)on1 is ____.
Response: 48 to 51 °C

Others:
Request: I am curious: what melting point value has been reported for COc1cc(Br)c(C=CC(=O)O)cc1OC ?
Response: 253 to 259 °C

Request: For CC(=O)Oc1cc(OC(C)=O)cc(C(C)=O)c1 , what is its reported melting point?
Response: 91 to 95 °C

###

# melting point per record follows

Request: Which value of melting point has been reported for Clc1ccc(C2C3CCc4ccccc4C3=NN2c2ccccc2)cc1 (configuration not stated) in the records?
Response: 168 to 170 °C

Request: What does the data say about its melting point? Entry: NN1C(=O)c2cccc3cccc(c23)C1=O
Response: 265 to 266 °C

Request: Tell me the measured melting point of OCc1cccc(CO)n1 , please.
Response: 112 to 115 °C

Request: Entry under review: COC1=C/C(=N\O)C2(C)CCC1C2(C)C (configuration not stated) . Reported melting point?
Response: 185 °C

Request: Which measured melting point value corresponds to Nc1ccncc1Br ?
Response: 67 to 71 °C

Request: Given the molecule CCCCCSc1nnc[nH]1 , what is its reported melting point?
Response: 47 to 48 °C

Request: Endpoint output: melting point of Cc1noc(-c2ccccc2C(=O)O)n1 . Value?
Response: 152 to 153 °C

###

melting point: recorded values

Worked cases, melting point given:
Request: I would be grateful if you could share the reported melting point for CCOC(=O)c1c(N)sc(C)c1C .
Response: 90 to 91 °C

Request: What measured melting point goes with Cn1ccc(S(=O)(=O)Cl)n1 ?
Response: 36 to 39 °C

Request: Given the molecule CC(C)(C)c1cnc(C(=O)Nc2cccc(Br)c2)cn1 , what is its reported melting point?
Response: 113 to 114 °C

Request: Recorded melting point of OCc1ccc2nccn2c1 , please.
Response: 106 to 108 °C

Request: Param item = N#CC(c1ccccc1)N1CCCCC1 (stereo not given) ; retrieve measured melting point.
Response: 62 to 63 °C

Request: Which measured melting point value corresponds to O=C1c2cccc(O)c2C(=O)c2c(O)cccc21 ?
Response: 193 °C

***
Request: What value of melting point has been recorded for this entry: CCOC(=O)C(C=Cc1cccc(C=CC(C(=O)OCC)C(=O)OCC)c1)C(=O)OCC
Response: 100 to 102 °C

Request: Find the recorded melting point belonging to CCc1c(C)n[nH]c1C and report it.
Response: 40 to 45 °C

###

ASSAY METRIC: melting point (°C)

a: COc1ccc(-c2onc(C(=O)c3ccco3)c2S(=O)(=O)c2ccccc2)cc1
b: CC(=O)C1(O)CCC2C3CC(C)C4=CC(=O)CCC4(C)C3CCC21C (stereo not drawn)
Request: Larger number for melting point: a , or b ? Identify your selection by its label.
Response: b

a: CCCCSC(=Nc1cccnc1)SCc1ccc(C(C)(C)C)cc1
b: CCOC(=O)C(C#N)=Cc1ccccc1
Request: Lab note: check whether a or b has the lower measured melting point. // return label of chosen record
Response: a
